- System: Pin1 (Homo sapiens, UniProt Q13526)
- Sequence (Q13526 whole entry): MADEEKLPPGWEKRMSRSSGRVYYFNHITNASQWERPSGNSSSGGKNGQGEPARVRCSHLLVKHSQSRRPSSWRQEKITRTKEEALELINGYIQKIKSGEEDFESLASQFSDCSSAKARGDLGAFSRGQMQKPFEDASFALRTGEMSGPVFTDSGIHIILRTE
- Assay overview: confirmatory Pin1 fluorescence polarization competition assay (Alexa488 reconfirmed)
- Reported conditions: read-out: Alexa488 Reconfirmed Efficacy
Emax listing for selected compounds.
Write the answer as a number in %, unit excluded.

Illustrative cases are given below, each with its answer.
| Mol smiles | System | Emax [%] |
| --- | --- | --- |
| COc1ccc(C(=O)c2no[n+]([O-])c2C(=O)c2ccc(OC)cc2)cc1 | Pin1 (Homo sapiens, UniProt Q13526) | 82 |
| N#Cc1no[n+]([O-])c1C(=O)c1cccs1 | Pin1 (Homo sapiens, UniProt Q13526) | 85 |

I looked up Cc1cccc(N(Cc2cc(=O)[nH]c3ccccc23)C(=O)CCl)c1 and its Emax for Pin1 (Homo sapiens, UniProt Q13526) was 82.9

###

- System: Pin1 (Homo sapiens, UniProt Q13526)
- Assay overview: confirmatory Pin1 fluorescence polarization competition assay (Alexa488 reconfirmed)
pIC50: −log10 of the molar value.
Where pIC50 equals or exceeds 6, the correct label is 1; where it does not, the label is -1.

| Mol smiles | System | Class assignment |
| --- | --- | --- |
| O=C(c1cccs1)c1no[n+]([O-])c1C(=O)c1cccs1 | Pin1 (Homo sapiens, UniProt Q13526) | 1 |
| O=C(O)CCCNC(=O)/C=C/c1ccco1 | Pin1 (Homo sapiens, UniProt Q13526) | -1 |

Below: the item to evaluate.
Textbook exercise: given the entry O=C(O)Cc1c[nH]c2cccc(O)c12 , state whether its pIC50 is greater than or equal to 6.
-1

###

This listing pairs compounds with measured IC50.
- System: UniProt:Q13526
- Assay overview: Pin1 fluorescence polarization competition assay, primary qHTS (HiFluor-488 / Alexa488 probe)
- Reported conditions: Alexa488 Primary Potency, primary qHTS
Field: numeric (µM). Do not append units.

Solved entries:
| Compound | Unit descriptor | Reported measurement |
| --- | --- | --- |
| COc1ccc(C(=O)c2no[n+]([O-])c2C(=O)c2ccc(OC)cc2)cc1 | µM | 38 |
| CCOc1cc(Br)cc(C(c2c(C(=O)O)[nH]c3ccccc23)c2c(C(=O)O)[nH]c3ccccc23)c1O | µM | 22 |
| O=C(c1ccc(=O)oc1)N1CCOCC1 | µM | 14 |

--- query ---
IC50 reported for this compound COC(=O)COc1ccc(C2Nc3c(Cl)ccc(C(=O)O)c3C3C=CCC32)cc1 (stereo not shown) : 19

###

- System: Pin1 (Homo sapiens, UniProt Q13526)
- Assay overview: Pin1 fluorescence polarization competition assay with Tamra-probe (secondary)
- Reported conditions: read-out: Tamra Secondary Efficacy
Lab note - cut at 80% for Emax: Y if strictly below, N if not.

For COc1cc(C(c2c(C(=O)O)[nH]c3ccccc23)c2c(C(=O)O)[nH]c3ccccc23)ccc1OCc1ccccc1 , is the recorded Emax below the cut-off of 80%?
N

Quick check: Emax of O=S(=O)(O)c1ccc(O)c2cc(Nc3ccccc3)ccc12 under 80%?
N

###

- System: Pin1 (Homo sapiens)
- Assay overview: Pin1 fluorescence polarization competition assay, primary qHTS (HiFluor-488 / Alexa488 probe)
- Reported conditions: Alexa488 Primary Potency, primary qHTS
pIC50: −log10 of the molar value.
Please note: Satisfied applies when pIC50 is 5 or greater, and Not satisfied applies otherwise.

Would you say O=C(O)C1Nc2c(Cl)cc(Cl)c(Cl)c2C2C=CCC12 (centres unmarked) shows pIC50 at minimum 5?
Not satisfied

Is pIC50 for NS(=O)(=O)c1cc(C(=O)NC2CCSc3ccccc32)ccc1Cl (centres unmarked) at or above 5?
Satisfied

###

- System: Pin1 (Homo sapiens)
- Assay overview: Pin1 fluorescence polarization competition assay, primary qHTS (HiFluor-488 / Alexa488 probe);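 further: Pin1 protein with fluorescent peptide probe, compound displacement read by fluorescence polarization, percent inhibition derived from corrected polarization values, concentration-response curves in 1536-well format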
- Reported conditions: primary qHTS
Alexa488 Primary Curve Class for assorted compounds

Some compounds with recorded Alexa488 Primary Curve Class:
| Compound | Alexa488 Primary Curve Class |
| --- | --- |
| O=S(=O)(O)c1cc(O)c2cc(Nc3ccccc3)ccc2c1 [Compound 15] | 2.2 (≤80% (class 2.2)) |
| O=C(O)C1Nc2c(Cl)cc(Cl)c(Cl)c2C2C=CCC12 (stereo not drawn) [Compound 5] | 1.2 (≤80% (class 1.2)) |
| Cc1c(C(=O)c2no[n+]([O-])c2C(=O)c2cnn(C)c2C)cnn1C [Compound 30] | 1.2 (≤80% (class 1.2)) |
| CC(=O)c1ccc2c(c1)C1C=CCC1C(C(=O)O)N2 (stereo not drawn) [Compound 1] | 1.2 (≤80% (class 1.2)) |
| Cn1nc(-c2ccncc2)nc2c(=O)n(C)c(=O)nc1-2 [Compound 49] | 1.2 (≤80% (class 1.2)) |
| O=C(O)C1Nc2c(O)cccc2C2C=CCC12 (stereo not drawn) [Compound 4] | 1.2 (≤80% (class 1.2)) |

Query O=C(O)c1cc(Cl)c2c(c1)[C@@H]1C=CC[C@@H]1[C@H](c1ccc(S(=O)(=O)N3CCOCC3)cc1)N2 [Compound 41] yields Alexa488 Primary Curve Class of 2.2 (≤80% (class 2.2))

Alexa488 Primary Curve Class measured on Cc1ccc(NC(=O)CN(C)C(=O)c2cccc(-n3cccc3)c2)cc1 [Compound 25] = 2.2 (≤80% (class 2.2))

get_value(item= Cc1cc(C(=O)NCc2ccc(C(=O)O)o2)c(C)o1 [Compound 33] , readout=Alexa488 Primary Curve Class) returns 1.2 (≤80% (class 1.2))

###

- System: UniProtKB Q13526
- Assay overview: confirmatory Pin1 fluorescence polarization competition assay (Alexa488 reconfirmed)
- Reported conditions: read-out: Alexa488 Reconfirmed Efficacy
Criterion: Emax strictly less than 90%. Met: condition met. Not met: condition not met.

| Compound | Class assignment |
| --- | --- |
| Cc1ccc(N(Cc2cc(=O)[nH]c3ccccc23)C(=O)CCl)cc1 [Compound 9] | condition not met |

For O=C(O)c1cc2cccc([N+](=O)[O-])c2[nH]1 [Compound 22] , is the recorded Emax below the cut-off of 90%?
condition not met

Find out if reported Emax for CCCCCC(=O)Nc1cc(S(=O)(=O)O)cc2cc(S(=O)(=O)O)cc(O)c12 [Compound 16] is less than 90%
condition not met

Hello, is Emax of the following compound strictly smaller than 90%? O=C(NC(Cc1ccccc1)C(=O)O)/C(=C\c1ccco1)NC(=O)c1ccccc1 (stereo not drawn) [Compound 35]
condition not met

is_below(Emax, 90%) for O=C(O)C1Nc2ccc(Br)cc2C2C=CCC12 (stereo not drawn) [Compound 6] ?
condition met

Strictly below 90% in Emax? Cc1oc(-c2ccc3c(c2)OCCO3)cc1C(=O)NC(Cc1ccccc1)C(=O)O (stereo not drawn) [Compound 21]
condition met

A record lists COC(=O)COc1ccc(C2Nc3c(Cl)ccc(C(=O)O)c3C3C=CCC32)cc1 (stereo not drawn) [Compound 42] . Is its Emax below 90%?
condition met

In plain terms, does O=C(O)c1cc(Cl)c2c(c1)[C@@H]1C=CC[C@@H]1[C@H](c1ccc(S(=O)(=O)N3CCOCC3)cc1)N2 [Compound 41] come in under 90% for Emax?
condition met

Determine if O=C(O)c1[nH]c2ccccc2c1C(c1cc(Cl)cc([N+](=O)[O-])c1O)c1c(C(=O)O)[nH]c2ccccc12 [Compound 44] shows Emax strictly lower than 90%.
condition met

Quick check: Emax of COc1cc(/C=C2\SC(=O)N(c3ccc(Cl)cc3)C2=O)cc([N+](=O)[O-])c1O [Compound 38] under 90%?
condition not met

Emax strictly < 90% for this compound? CCn1nc(-c2ccccc2C)nc2c(=O)n(C)c(=O)nc1-2 [Compound 48]
condition met

Regarding Cc1cc(C(=O)NCc2ccc(C(=O)O)o2)c(C)o1 [Compound 33] , kindly confirm whether its Emax is beneath 90%.
condition met

Does this compound meet the criterion Emax < 90%? O=S(=O)(Nc1nc(-c2sccc2Cl)cs1)c1cc(Cl)ccc1Cl [Compound 24]
condition not met

###

- System: Pin1 (Homo sapiens, UniProt Q13526)
- Assay overview: confirmatory Pin1 fluorescence polarization competition assay (Alexa488 reconfirmed);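 further: Pin1 competition with a HiFluor488-labelled peptide probe, read as fluorescence polarization after 10 min at room temperature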
- Reported conditions: confirmatory retest
Value type: Alexa488 Reconfirmed Curve Class

Below are worked cases with known answers.
| Compound | Alexa488 Reconfirmed Curve Class |
| --- | --- |
| C=CCOc1ccc(C(c2c(C(=O)O)[nH]c3ccccc23)c2c(C(=O)O)[nH]c3ccccc23)cc1 | 2.2 (≤80% (class 2.2)) |
| O=S(=O)(Nc1nc(-c2sccc2Cl)cs1)c1cc(Cl)ccc1Cl | 1.2 (≤80% (class 1.2)) |
| Cc1cc(C(=O)NCc2ccc(C(=O)O)o2)c(C)o1 | 2.2 (≤80% (class 2.2)) |

Proceeding to the next compound to report its Alexa488 Reconfirmed Curve Class.
Entry under test: Cc1oc(-c2ccc3c(c2)OCCO3)cc1C(=O)NC(Cc1ccccc1)C(=O)O (stereo not shown) . Its Alexa488 Reconfirmed Curve Class was 2.2 (≤80% (class 2.2))
